Target: human orexin-1 receptor (Homo sapiens (Human))
Sequence (O43613 whole entry): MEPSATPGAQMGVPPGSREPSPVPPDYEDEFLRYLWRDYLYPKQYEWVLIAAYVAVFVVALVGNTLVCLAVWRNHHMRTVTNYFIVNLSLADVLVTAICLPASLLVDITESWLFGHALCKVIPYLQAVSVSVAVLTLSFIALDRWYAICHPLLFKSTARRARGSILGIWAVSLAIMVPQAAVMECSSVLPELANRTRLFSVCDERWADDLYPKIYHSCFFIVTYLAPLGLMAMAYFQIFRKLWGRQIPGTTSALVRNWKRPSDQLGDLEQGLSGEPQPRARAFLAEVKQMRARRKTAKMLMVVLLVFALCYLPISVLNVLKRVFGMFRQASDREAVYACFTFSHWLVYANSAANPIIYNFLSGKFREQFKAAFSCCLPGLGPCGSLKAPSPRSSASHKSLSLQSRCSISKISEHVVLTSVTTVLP
Experiment: In vitro assay: intracellular calcium measurements (FLIPR), antagonistic activity
Conditions: CHO cells expressing human orexin-1 receptor, orexin-A agonist, geometric mean, read-out: IC50 Ox1
pIC50: −log10 of the molar value.
observable: pIC50

| compound | pIC50 |
| --- | --- |
| COc1cc2nc([C@]3(C)CCCN3C(=O)c3cc(C(F)(F)F)ccc3-n3nccn3)[nH]c2cc1OC | 7.25 |

A: C=C1CN(C(=O)c2ccccc2-c2ccc(C)c(C)c2)C(C)(c2nc3cc(OC)ccc3[nH]2)C1 (stereo not shown)
B: Cc1ccc(-n2cccn2)c(C(=O)N2CCC[C@@]2(C)c2nc3c(C)c(Cl)ccc3[nH]2)n1
Enquiry: Would you kindly point out which of A and B has the smaller pIC50 figure? Answer by stating the label of the chosen item.
Return: A

a: Cc1nc(C(=O)N2CC[C@H](C)[C@H]2c2nc3c(C(F)(F)F)cccc3[nH]2)c(-c2ccccc2Cl)s1
b: Cc1nc(C(=O)N2CCCC2c2nc3cc(OC(F)(F)F)ccc3[nH]2)c(-c2cccc(Cl)c2)s1 (stereo not shown)
Enquiry: I'd appreciate it if you could identify which of a and b has the greater pIC50. Answer by stating the label of the chosen item.
Return: a
(a: 7.38, b: 6.77)

1: Cc1c(Cl)ccc2[nH]c([C@]3(C)CCCN3C(=O)c3cc(F)ccc3-c3ncccn3)nc12
2: CSc1ccc2nc([C@@H]3CCCN3C(=O)c3c(F)cccc3-n3nccn3)[nH]c2c1
Enquiry: Would you kindly point out which of 1 and 2 has the smaller pIC50 figure? Answer by stating the label of the chosen item.
Return: 2
(2: 5.93, 1: 8.15)
